target: UniProt:Q9UNQ0; experiment: Inhibition of ABCG2 expressed in HEK293 cells assessed as mitoxantrone-mediated efflux by flow cytometry; type: cell-based
Sequence (Q9UNQ0 whole entry): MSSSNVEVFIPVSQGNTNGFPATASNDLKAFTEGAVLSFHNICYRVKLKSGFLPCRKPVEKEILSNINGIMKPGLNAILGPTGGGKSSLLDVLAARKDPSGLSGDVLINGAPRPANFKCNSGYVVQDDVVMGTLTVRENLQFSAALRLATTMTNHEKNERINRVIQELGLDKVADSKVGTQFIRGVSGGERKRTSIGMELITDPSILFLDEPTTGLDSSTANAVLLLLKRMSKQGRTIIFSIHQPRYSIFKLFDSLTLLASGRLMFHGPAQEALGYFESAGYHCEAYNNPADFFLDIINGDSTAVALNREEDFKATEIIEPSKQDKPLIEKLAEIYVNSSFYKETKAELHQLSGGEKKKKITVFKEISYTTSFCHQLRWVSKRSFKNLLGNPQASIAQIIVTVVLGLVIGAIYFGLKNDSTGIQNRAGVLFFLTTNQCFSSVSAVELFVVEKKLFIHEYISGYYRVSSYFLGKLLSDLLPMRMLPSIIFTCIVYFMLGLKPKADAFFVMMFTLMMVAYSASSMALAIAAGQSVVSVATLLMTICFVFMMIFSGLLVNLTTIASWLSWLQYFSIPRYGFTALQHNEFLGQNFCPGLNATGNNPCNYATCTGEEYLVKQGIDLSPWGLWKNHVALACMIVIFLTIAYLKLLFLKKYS
pIC50: −log10 of the molar value.
Mark F for pIC50 values under 6, and T for everything at or above.

>>> class_label("COc1ccc(CCNC(=O)c2cccc3c(=O)c4ccc(OC)cc4[nH]c23)cc1")
"T"
>>> class_label("O=c1c2ccccc2[nH]c2cccc(O)c12")
"F"
>>> class_label("COc1ccc(CCNC(=O)c2cccc3c(=O)c4ccccc4[nH]c23)cc1")
"T"
>>> class_label("COc1ccc2[nH]c3ccccc3c(=O)c2c1OC")
"F"
>>> class_label("O=c1c2ccccc2[nH]c2ccc(O)cc12")
"F"
>>> class_label("O=c1c2ccccc2[nH]c2cc(C(F)(F)F)cc(O)c12")
"F"
>>> class_label("COc1cccc2[nH]c3ccccc3c(=O)c12")
"F"
>>> class_label("COc1ccc2[nH]c3ccccc3c(=O)c2c1")
"F"
>>> class_label("COc1cc(OC)c2c(=O)c3ccccc3[nH]c2c1")
"F"
>>> class_label("COc1ccc(CCNC(=O)c2cccc3c(=O)c4ccccc4[nH]c23)cc1OC")
"T"
>>> class_label("COc1cc(O)c2c(=O)c3ccccc3[nH]c2c1")
"F"

The values you see were collected from ChEMBL document CHEMBL1147844.
